Biological target: Class 2 dihydroorotate dehydrogenase (DHOD) from E. coli (Escherichia coli, UniProt P0A7E1, T178A)
Assay: aerobic spectrophotometric titration of flavin absorbance
reportedMetric: pKd
Field pKd (float): negative decimal logarithm of the concentration in molar.

input: // returns reported pKd for input O=C(O)c1cc(=O)[nH]c(=O)[nH]1 [orotate]
output: 5.21

* * *

Target: Class 2 dihydroorotate dehydrogenase (DHOD) from E. coli (Escherichia coli, UniProt P0A7E1, T178S)
Assay: aerobic spectrophotometric titration of flavin absorbance
reportedMetric: pKd
Field pKd (float): negative decimal logarithm of the concentration in molar.

input: // returns reported pKd for input O=C(O)c1cc(=O)[nH]c(=O)[nH]1 [orotate]
output: 5.96

* * *

Target: Class 2 dihydroorotate dehydrogenase (DHOD) from E. coli (Escherichia coli, UniProt P0A7E1, F115W)
Sequence (P0A7E1 1-336 F115W): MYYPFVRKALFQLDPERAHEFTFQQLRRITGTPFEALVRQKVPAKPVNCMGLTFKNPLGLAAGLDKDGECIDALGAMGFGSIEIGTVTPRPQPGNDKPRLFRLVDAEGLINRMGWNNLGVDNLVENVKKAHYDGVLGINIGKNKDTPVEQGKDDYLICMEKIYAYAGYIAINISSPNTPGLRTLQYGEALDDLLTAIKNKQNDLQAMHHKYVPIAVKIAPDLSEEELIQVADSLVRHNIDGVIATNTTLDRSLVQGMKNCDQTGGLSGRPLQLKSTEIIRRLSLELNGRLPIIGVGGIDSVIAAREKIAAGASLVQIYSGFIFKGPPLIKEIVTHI
Assay: aerobic spectrophotometric titration of flavin absorbance
reportedMetric: pKd
Field pKd (float): negative decimal logarithm of the concentration in molar.

input: // returns reported pKd for input O=C(O)c1cc(=O)[nH]c(=O)[nH]1 [orotate]
output: 5.09

* * *

Target: Class 2 dihydroorotate dehydrogenase (DHOD) from E. coli (Escherichia coli, UniProt P0A7E1, F115L)
Test: aerobic spectrophotometric titration of flavin absorbance
reportedMetric: pKd
Field pKd (float): negative decimal logarithm of the concentration in molar.

input: // returns reported pKd for input O=C(O)c1cc(=O)[nH]c(=O)[nH]1 [orotate]
output: 5.43

* * *

Target: Class 2 dihydroorotate dehydrogenase (DHOD) from E. coli (Escherichia coli, UniProt P0A7E1, F115A)
Experiment: aerobic spectrophotometric titration of flavin absorbance
reportedMetric: Kd (µM)
Answer format: numeric, µM implied, no suffix.

input: // returns reported Kd for input O=C(O)c1cc(=O)[nH]c(=O)[nH]1 [orotate]
output: 3.8

* * *

Molecular target: Class 2 dihydroorotate dehydrogenase (DHOD) from E. coli (Escherichia coli, UniProt P0A7E1, T178V)
Sequence (P0A7E1 1-336 T178V): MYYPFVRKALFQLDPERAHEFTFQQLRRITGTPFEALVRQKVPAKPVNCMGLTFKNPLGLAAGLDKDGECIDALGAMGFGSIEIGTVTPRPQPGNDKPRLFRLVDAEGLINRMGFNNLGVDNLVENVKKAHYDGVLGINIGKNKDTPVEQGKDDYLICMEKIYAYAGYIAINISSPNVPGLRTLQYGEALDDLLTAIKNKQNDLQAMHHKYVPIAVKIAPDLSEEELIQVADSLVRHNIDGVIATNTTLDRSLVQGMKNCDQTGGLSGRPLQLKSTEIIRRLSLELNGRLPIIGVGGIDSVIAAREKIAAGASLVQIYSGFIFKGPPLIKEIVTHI
Assay: aerobic spectrophotometric titration of flavin absorbance
reportedMetric: Kd (nM)
Answer format: numeric, nM implied, no suffix.

input: // returns reported Kd for input O=C(O)c1cc(=O)[nH]c(=O)[nH]1 [orotate]
output: 560
